viability, T/C by entry:
# System: 454973-116-R2-J3-PDC spheroids, percent test/control viability
# assay-summary: Anticancer human tumor 454973-116-R2-J3-PDC patient-derived pancreatic carcinoma cell line growth inhibition [CLK]
# condition-parameters: second compound 0.1 µM; first compound 0.0316 µM; stronger effect = lower value; spheroids with HUVEC and MSC
# Text: A high-throughput screen of multi-cell type tumor spheroids was designed to identify active combinations of […] and targeted small molecules. Complex spheroids include a stromal component modeled by human endothelial cells (HUVEC) and fibroblasts modeled by human mesenchymal stem cells (MSCs). […] Compounds. […] If the clinical Cmax for an agent had not been determined, the highest concentration tested was 10 microM. […]

Below, each entry is followed by its recorded viability, T/C result.
COc1ccc([C@@H](O)c2cc(-c3ncnc4cc(N5CCOCC5)ccc34)c(F)cc2Cl)nn1 + CN1CCN(c2cc(C(=O)Nc3cc4cc(-c5cnn(C)c5)ccc4cn3)ccn2)CC1 = 74.8%
C=C(F)C(=O)N1CCN(c2nc(OCC3CCCN3C)nc3c2CCN(c2cccc4cccc(Cl)c24)C3)CC1CC#N (stereo not given) + CNC(=O)c1ccc(Nc2nc(OC3CCCC3)c3c(-c4ccc5nc(C)oc5c4)c[nH]c3n2)c(OC)c1 = 96.9%
Cn1ncnc1[C@H]1c2n[nH]c(=O)c3cc(F)cc(c23)N[C@@H]1c1ccc(F)cc1 + CN1CCN(c2cc(C(=O)Nc3cc4cc(-c5cnn(C)c5)ccc4cn3)ccn2)CC1 = 59.1%
CC1(C)CCC(CN2CCN(c3ccc(C(=O)NS(=O)(=O)c4ccc(NCC5CCOCC5)c([N+](=O)[O-])c4)c(Oc4cnc5[nH]ccc5c4)c3)CC2)=C(c2ccc(Cl)cc2)C1 + CNC(=O)c1ccc(Nc2nc(OC3CCCC3)c3c(-c4ccc5nc(C)oc5c4)c[nH]c3n2)c(OC)c1 = 96.3%

Turning now to a further compound:
Problem: Report viability, T/C for COc1ccc([C@@H](O)c2cc(-c3ncnc4cc(N5CCOCC5)ccc34)c(F)cc2Cl)nn1 + CNC(=O)c1ccc(Nc2nc(OC3CCCC3)c3c(-c4ccc5nc(C)oc5c4)c[nH]c3n2)c(OC)c1
Solution: 98.9%

====

# Test system: 454973-116-R2-J3-PDC spheroids, percent test/control viability
# assay-summary: Anticancer human tumor 454973-116-R2-J3-PDC cell line growth inhibition [CLK];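 further: spheroids exposed to compounds for 7 days before readout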
# condition-parameters: second compound 0.1 µM; first compound 1 µM; stronger effect = lower value; spheroids with HUVEC and MSC
Each record here notes measured viability, T/C.
Write the answer as a number in %, unit excluded.

CC(Nc1ccc2c(c1)OCCn1cc(N3C(=O)OCC3C(F)F)nc1-2)C(N)=O (centres undefined) + CNC(=O)c1ccc(Nc2nc(OC3CCCC3)c3c(-c4ccc5nc(C)oc5c4)c[nH]c3n2)c(OC)c1 = 59
O=C(c1cc(Cc2n[nH]c(=O)c3ccccc23)ccc1F)N1CCN(C(=O)C2CC2)CC1 + CNC(=O)c1ccc(Nc2nc(OC3CCCC3)c3c(-c4ccc5nc(C)oc5c4)c[nH]c3n2)c(OC)c1 = 101
COc1c(OCCCN2CCOCC2)ccc2c3n(c(=NC(=O)c4cnc(N)nc4)nc12)CCN3 + CN1CCN(c2cc(C(=O)Nc3cc4cc(-c5cnn(C)c5)ccc4cn3)ccn2)CC1 = 4.74

Problem: State its viability, T/C for this compound: CC1COCCN1c1cc(C2(S(C)(=N)=O)CC2)nc(-c2ccnc3[nH]ccc23)n1 (centres undefined) + CN1CCN(c2cc(C(=O)Nc3cc4cc(-c5cnn(C)c5)ccc4cn3)ccn2)CC1
Solution: 77.5

// data source = PubChem BioAssay AID2060618
